# maps each entry to its MIC
# Tested on: up to 32 different microorganisms
# PROTOCOL_NOTES: in vitro antibacterial activity (MIC), agar dilution on Brain Heart Infusion (BHI) agar with Steers replicator
# Type: cell-based
# SETUP_CONDITIONS: Nocardia Asteroides ATCC9970 (code VV); unit assumed
Give just the numeric value; µg/mL need not be written.

Worked examples, 2 compounds total:
>>> measured_result("CC[C@H]1OC(=O)[C@H](C)C(=O)[C@H](C)[C@@H](O[C@@H]2O[C@H](C)C[C@H](N(C)C)[C@H]2O)[C@@](C)(OCCNCc2ccncc2)C[C@@H](C)C(=O)[C@H](C)[C@@H](O)[C@]1(C)O")
0.39
>>> measured_result("CC[C@H]1OC(=O)[C@H](C)C(=O)[C@H](C)[C@@H](O[C@@H]2O[C@H](C)C[C@H](N(C)C)[C@H]2O)[C@@](C)(OCC=Cc2cnc3ccccc3c2)C[C@@H](C)C(=O)[C@H](C)[C@H]2N(C)C(=O)O[C@]12C")
0.1

Moving on to another compound below.
Provide MIC, tested on up to 32 different microorganisms, for CC[C@H]1OC(=O)[C@H](C)C(=O)[C@H](C)[C@@H](O[C@@H]2O[C@H](C)C[C@H](N(C)C)[C@H]2O)[C@@](C)(OCc2ccc3ccccc3c2)C[C@@H](C)C(=O)[C@H](C)[C@@H](O)[C@]1(C)O .
6.2

###

# Tested on: up to 32 different microorganisms
# PROTOCOL_NOTES: in vitro antibacterial activity (MIC), agar dilution on Brain Heart Infusion (BHI) agar with Steers replicator
# Type: cell-based
# SETUP_CONDITIONS: Nocardia Asteroides ATCC9970 (code VV); unit assumed
REPORTED_PROPERTY: MIC (µg/mL)
Give just the numeric value; µg/mL need not be written.

Worked examples, 2 compounds total:
>>> measured_result("CCC1OC(=O)C(C)C(=O)C(C)C(OC2OC(C)CC(N(C)C)C2O)C(C)(OCC=Cc2ccc3ccccc3c2)CC(C)C(=O)C(C)C2NC(=O)OC12C (centres unmarked) [Example 186, R is —CH2CH═CH-(2-naphthyl)]")
0.1
>>> measured_result("CCC1OC(=O)C(C)C(=O)C(C)C(OC2OC(C)CC(N(C)C)C2O)C(C)(OCC=Cc2ccc3nc(C)ccc3c2)CC(C)C(=O)C(C)C2NC(=O)OC12C (centres unmarked) [Example 197, R is —CH2CH═CH-(2-methyl-6-quinolyl)]")
0.1

// Input: C=CCOC1(C)CC(C)C(=O)C(C)C2N(CC=C)C(=O)OC2(C)C(CC)OC(=O)C(C)C(=O)C(C)C1OC1OC(C)CC(N(C)C)C1O (centres unmarked) [Example 183] . Output its MIC only.
1.56

// Input: CCC1OC(=O)C(C)C(=O)C(C)C(OC2OC(C)CC(N(C)C)C2O)C(C)(OCC=Cc2cccc3cccnc23)CC(C)C(=O)C(C)C2NC(=O)OC12C (centres unmarked) [Example 189, R is —CH2CH-(8-quinolyl)] . Output its MIC only.
0.05

// Input: CC[C@H]1OC(=O)[C@H](C)C(=O)[C@H](C)[C@@H](O[C@@H]2O[C@H](C)C[C@H](N(C)C)[C@H]2O)[C@@](C)(OCC=Cc2ccc(F)cc2)C[C@@H](C)C(=O)[C@H](C)[C@@H](O)[C@]1(C)O [Example 174] . Output its MIC only.
0.78

These measurements were taken from patent USRE39591E1.
